- Test system: beta amyloid production
- TEST PROTOCOL: Repressor Release Assay (RRA)
- Type: cell-based
- DETAILS: Conc 3 μg/ml; luciferase activity over diluent control; read-out: APPI Fold Increase
READOUT: fold induction at 3 µg/mL
Answers are plain numbers.

Use the examples below as a reference point.
MOLECULE: CC[C@H](C)[C@@H](CO)NS(=O)(=O)c1ccc(Br)cc1
READOUT: fold induction at 3 µg/mL
DATA VALUE: 1.79

MOLECULE: CC[C@H](C)[C@@H](CO)NS(=O)(=O)c1ccc(Cl)cc1
READOUT: fold induction at 3 µg/mL
DATA VALUE: 1.71

Query: What measured fold induction at 3 µg/mL goes with C=CCC(O)[C@@H](NS(=O)(=O)c1ccc(Br)cc1)[C@@H](C)CC (stereo partly drawn) ?
Response: 1.6

---

Consider the following compounds; for each one, report its (%)APPI Toxicity.
- System: CHO-K1 cells
- TEST PROTOCOL: Toxicity in RRA (loss of luciferase signal)
- DETAILS: Conc 10 μg/ml; toxicity = loss of signal (<0.75 fold increase)

Use the examples below as a reference point.
COMPOUND: CCCCCCC(O)[C@@H](NS(=O)(=O)c1ccc(F)cc1)[C@@H](C)CC (some centres unmarked) [Example 128]
ASSAY SYSTEM: CHO-K1 cells
(%)APPI Toxicity: 1 (1=non-toxic)
//
COMPOUND: CCCCC(O)[C@@H](NS(=O)(=O)c1ccc(Cl)cc1)[C@@H](C)CC (some centres unmarked) [Example 169]
ASSAY SYSTEM: CHO-K1 cells
(%)APPI Toxicity: 1 (1=non-toxic)
//
COMPOUND: C=C(C)C(O)(C(=C)C)[C@@H](NS(=O)(=O)c1ccccc1F)[C@@H](C)CC [Example 268]
ASSAY SYSTEM: CHO-K1 cells
(%)APPI Toxicity: 1 (1=non-toxic)
//
COMPOUND: CC[C@H](C)[C@H](NS(=O)(=O)c1ccc(Br)cc1)C(O)c1ccc(N(C)C)cc1 (some centres unmarked) [Example 164]
ASSAY SYSTEM: CHO-K1 cells
(%)APPI Toxicity: 1 (1=non-toxic)
//
COMPOUND: CC[C@H](C)[C@H](NS(=O)(=O)c1ccc(F)cc1)C(O)c1ccc(N(C)C)cc1 (some centres unmarked) [Example 143]
ASSAY SYSTEM: CHO-K1 cells
(%)APPI Toxicity: 1 (1=non-toxic)

Batch request: (%)APPI Toxicity for each of the following compounds.
1. CCCCC(O)[C@@H](NS(=O)(=O)c1ccc(F)cc1)[C@@H](C)CC (some centres unmarked) [Example 130]
2. CC[C@H](C)[C@H](NS(=O)(=O)c1ccc(Br)cc1)C(O)(CC)CC [Example 217]
3. CC[C@H](C)[C@H](NS(=O)(=O)c1cccc(Cl)c1)C(O)c1ccc(Cl)cc1 (some centres unmarked) [Example 196]

Response:
1 (1=non-toxic)
1 (1=non-toxic)
1 (1=non-toxic)

---

- Test system: beta amyloid production
- TEST PROTOCOL: Repressor Release Assay (RRA)
- Format: cell-based
- DETAILS: Conc 10 μg/ml; luciferase activity over diluent control
Consider the following compounds; for each one, report its APPI Fold Increase.
Numbers only, in fold.

Batch request: APPI Fold Increase for each of the following compounds.
1. CC[C@H](C)[C@H](NS(=O)(=O)c1cccc(Cl)c1)C(O)(c1ccc(Cl)cc1)c1ccc(Cl)cc1 [Example 256]
2. CC[C@H](C)[C@H](NS(=O)(=O)c1ccccc1F)C(O)c1ccc(OC)cc1 (stereo partly shown) [Example 209]
3. CC[C@H](C)[C@H](NS(=O)(=O)c1ccc(Br)cc1)C(O)c1ccc(N(C)C)cc1 (stereo partly shown) [Example 164]
4. C=CCC(O)(CC=C)[C@@H](NS(=O)(=O)c1cccc(Cl)c1)[C@@H](C)CC [Example 254]
5. CCCCCCC(O)(CCCCCC)[C@@H](NS(=O)(=O)c1ccccc1F)[C@@H](C)CC [Example 261]
6. CC[C@H](C)[C@H](NS(=O)(=O)c1ccc(F)cc1)C(O)c1ccccc1C (stereo partly shown) [Example 131]

Response:
1. 1.5
2. 1.81
3. 3.53
4. 1.93
5. 3.5
6. 1.65

Batch request: APPI Fold Increase for each of the following compounds.
1. CC[C@H](C)[C@H](NS(=O)(=O)c1ccc(Cl)cc1)C(O)CCC1OCCCO1 (stereo partly shown) [Example 179]
2. CC[C@H](C)[C@H](NS(=O)(=O)c1ccccc1F)C(O)C1CCCC1 (stereo partly shown) [Example 202]
3. CC[C@H](C)[C@H](NS(=O)(=O)c1ccc(Br)cc1)C(O)c1ccc(OC)cc1 (stereo partly shown) [Example 158]
4. CC[C@H](C)[C@H](NS(=O)(=O)c1ccc(F)cc1)C(O)(c1ccc(OC)cc1)c1ccc(OC)cc1 [Example 244]

Response:
1. 1.63
2. 1.62
3. 2.28
4. 1.51

Batch request: APPI Fold Increase for each of the following compounds.
1. C=CCC(O)(CC=C)[C@@H](NS(=O)(=O)c1ccc(F)cc1)[C@@H](C)CC [Example 241]
2. CC[C@H](C)[C@H](NS(=O)(=O)c1ccc(Br)cc1)C(O)CCC1OCCCO1 (stereo partly shown) [Example 160]
3. CC[C@H](C)[C@H](NS(=O)(=O)c1ccccc1F)C(O)(c1ccc(Cl)cc1)c1ccc(Cl)cc1 [Example 267]

Response:
[1.58, 1.66, 1.59]

Batch request: APPI Fold Increase for each of the following compounds.
1. CC[C@H](C)[C@H](NS(=O)(=O)c1ccc(Cl)cc1)C(O)c1ccc(SC)cc1 (stereo partly shown) [Example 182]
2. CC[C@H](C)[C@H](NS(=O)(=O)c1ccc(Br)cc1)C(O)(c1cccc2ccccc12)c1cccc2ccccc12 [Example 222]
3. C=CCC(O)(CC=C)[C@@H](NS(=O)(=O)c1ccc(Cl)cc1)[C@@H](C)CC [Example 228]

Response:
2.58
1.59
1.56

---

- Test system: beta amyloid production
- TEST PROTOCOL: Repressor Release Assay (RRA)
- Assay type: cell-based
- DETAILS: Conc 10 μg/ml; relative to Example 98
Sorting guide: entries reporting APPI % of Example #98 beneath 60% go in the 1 pile, the rest go in the -1 pile.

COMPOUND: CC[C@H](C)[C@H](NS(=O)(=O)c1ccc(Br)cc1)C(O)c1ccc(N(C)C)cc1 (stereo partly shown)
CAT: -1

COMPOUND: CC[C@H](C)[C@H](NS(=O)(=O)c1ccc(Br)cc1)C(O)(c1cccc2ccccc12)c1cccc2ccccc12
CAT: 1

COMPOUND: CC[C@H](C)[C@H](NS(=O)(=O)c1ccccc1F)C(O)C1CCCC1 (stereo partly shown)
CAT: 1

COMPOUND: C=CCC(O)(CC=C)[C@@H](NS(=O)(=O)c1ccc(Cl)cc1)[C@@H](C)CC
CAT: -1

COMPOUND: C=CCC(O)(CC=C)[C@@H](NS(=O)(=O)c1cccc(Cl)c1)[C@@H](C)CC
CAT: -1

Query: Item CC[C@H](C)[C@H](NS(=O)(=O)c1cccc(Cl)c1)C(O)(c1ccc(Cl)cc1)c1ccc(Cl)cc1 : APPI % of Example #98 beneath 60%, strictly?
Response: 1

Query: Item CC[C@H](C)[C@H](NS(=O)(=O)c1ccc(F)cc1)C(O)(c1ccc(OC)cc1)c1ccc(OC)cc1 : APPI % of Example #98 beneath 60%, strictly?
Response: -1

Query: Item CC[C@H](C)[C@H](NS(=O)(=O)c1ccc(Cl)cc1)C(O)c1ccc(SC)cc1 (stereo partly shown) : APPI % of Example #98 beneath 60%, strictly?
Response: -1

---

- Test system: beta amyloid production
- TEST PROTOCOL: Repressor Release Assay (RRA)
- Assay type: cell-based
- DETAILS: Conc 20 μg/ml; luciferase activity over diluent control; read-out: APPI Fold Increase
Consider the following compounds; for each one, report its fold induction at 20 µg/mL.
Answers are plain numbers.

Use the examples below as a reference point.
COMPOUND: CC[C@H](C)[C@@H](CO)NS(=O)(=O)c1c(C)cccc1Cl
fold induction at 20 µg/mL: 1.6
//
COMPOUND: CCCCC(CO)NS(=O)(=O)c1ccc(Br)cc1 (centres unmarked)
fold induction at 20 µg/mL: 1.7
//
COMPOUND: O=S(=O)(NC(CO)(c1ccccc1)C1CCC1)c1ccc(Cl)cc1 (centres unmarked)
fold induction at 20 µg/mL: 1.8
//
COMPOUND: CC(C)[C@@H](CO)NS(=O)(=O)c1ccc(Cl)c(Cl)c1
fold induction at 20 µg/mL: 2.2

Next:
Query: What measured fold induction at 20 µg/mL goes with CC[C@H](C)[C@@H](CO)NS(=O)(=O)c1cc(Br)ccc1Br ?
Response: 1.6
